Recorded HSA, one value per entry.
- Study System: human serum albumin (human) (UniProt P02768)
- Sequence (P02768 25-609 limits assumed): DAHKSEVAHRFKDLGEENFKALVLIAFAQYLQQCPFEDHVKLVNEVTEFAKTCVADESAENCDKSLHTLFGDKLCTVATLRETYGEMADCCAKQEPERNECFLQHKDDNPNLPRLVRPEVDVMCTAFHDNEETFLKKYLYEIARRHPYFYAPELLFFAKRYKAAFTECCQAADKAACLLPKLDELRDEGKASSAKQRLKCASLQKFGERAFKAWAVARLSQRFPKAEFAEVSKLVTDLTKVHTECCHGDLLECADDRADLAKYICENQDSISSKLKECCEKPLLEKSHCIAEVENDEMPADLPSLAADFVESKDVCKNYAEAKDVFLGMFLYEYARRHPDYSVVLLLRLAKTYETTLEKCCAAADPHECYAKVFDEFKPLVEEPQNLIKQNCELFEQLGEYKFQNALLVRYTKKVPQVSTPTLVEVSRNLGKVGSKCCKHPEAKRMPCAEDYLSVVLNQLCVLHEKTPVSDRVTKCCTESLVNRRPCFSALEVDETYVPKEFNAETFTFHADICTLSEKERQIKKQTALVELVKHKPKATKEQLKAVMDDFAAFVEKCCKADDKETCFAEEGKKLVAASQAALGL
- Assay Notes: screening ELISA
Reported Endpoint: HSA

>>> result_value("SEQ ID NO 192 (designed binder) MLPAPKNLVVSRVTEDSARLSWTALDAAFDSFFIGYLEPQPPGEAIVLTVPGSERSYDLTGLKPGTEYNVTIQGVKGGFPSMPLSAIFTT")
4100
>>> result_value("SEQ ID NO 186 (designed binder) MLPAPKNLVVSRVTEDSARLSWTAPDAAFDSFFIGYLESAEAIVLTVPGSERSYDLTGLKPGTEYLVTIQGVKGGIASDPLSAIFTT")
1850
>>> result_value("SEQ ID NO 103 (designed binder) MLLAPKNLVVSRVTEDSARLSWTAPDAAFDSFAIEYFEYTGEGEAIVLTVPGSERSYDLTGLKPGTEYYVGIYGVKGGYLSRPLSAIFTT")
1200
>>> result_value("SEQ ID NO 260 (designed binder) MLPAPKNLVVSRVTEDSARLSWTAPDAAFDSFNISYYEYFVHGEAIVLTVPGSERSYDLTGLKPGTEYYVIDGVKGGDPSEPLSAIFTT")
14400
>>> result_value("SEQ ID NO 299 (designed binder) MLPAPKNLVVSRVTEDSARLSWTAPDAAFDSFLIEYWESVGYGEAIVLTVPGSERSYDLTGLKPGTEYWVGIYGVKGGYYSRPLSAIFTT")
2200
>>> result_value("SEQ ID NO 60 (designed binder) MLPAPKNLVVSRVTEDSARLSWTAPDAAFDSFTIWYAEAIGHGEAIVLTVPGSERSYDLTGLKPGTEYWVDIWGVKGGQQSKPLSAIFTT")
6480
>>> result_value("SEQ ID NO 208 (designed binder) MLPAPKNLVVSRVTEDSARLSWTAPDAAFDSFGIVYREPYVGGEAIVLTVPGSERSYDLTGLKPGTEYGVPIPGVKGGYDSGPLSAIFTT")
46700
>>> result_value("SEQ ID NO 300 (designed binder) MLPAPKNLVVSRVTEDSARLSWTAPDAAFDSFFIGYLEPQPPGEAIVLTVPGSERSYDLTGLKPGTEYNVTIHGVKGGTPSMPLSAIFTT")
4050
>>> result_value("SEQ ID NO 242 (designed binder) MLPAPKNLVVSRVTEDSARLSWTAPDAAFDSFPIKYLEWWSWGEAIVLTVPGSERSYDLTGLKPGTEYRVPISGVKGGGMSGPLSAIFTT")
4900
